Give measured change of melting temperature, mutant - wild type (higher = more stable) for each item. Keep answers brief.
B1: Haloalkane dehalogenase, D4Z2G1 (parent)
chain: MSLGAKPFGEKKFIEIKGRRMAYIDEGTGDPILFQHGNPTSSYLWRNIMPHCAGLGRLIACDLIGMGDSDKLDPSGPERYAYAEHRDYLDALWEALDLGDRVVLVVHDWGSALGFDWARRHRERVQGIAYMEAIAMPIEWADFPEQDRDLFQAFRSQAGEELVLQDNVFVEQVLPGLILRPLSEAEMAAYREPFLAAGEARRPTLSWPRQIPIAGTPADVVAIARDYAGWLSESPIPKLFINAEPGALTTGRMRDFCRTWPNQTEITVAGAHFIQEDSPDEIGAAIAAFVRRLRPA

- Variants of: B1
- run-parameters: Sphingobium indicum (strain DSM 16413 / CCM 7287 / MTCC 6362 / UT26 / NBRC 101211 / UT26S); pH 7.5; Thermal; fluorescence; Na-Hepes 50 mM; reversible: no; structure 1MJ5; whole UniProt chain shown
Report as: number unit

Exercise: Can you look up the measured change of melting temperature, mutant - wild type (higher = more stable) of "D149K" for me?
Solution: 16.5 °C

Exercise: Can you look up the measured change of melting temperature, mutant - wild type (higher = more stable) of "A81P" for me?
Solution: -3 °C

Exercise: Can you look up the measured change of melting temperature, mutant - wild type (higher = more stable) of R20C D70C for me?
Solution: -3.5 °C

Exercise: Can you look up the measured change of melting temperature, mutant - wild type (higher = more stable) of "C257A" for me?
Solution: -2.5 °C

Exercise: Can you look up the measured change of melting temperature, mutant - wild type (higher = more stable) of "T249V" for me?
Solution: 9 °C

Exercise: Can you look up the measured change of melting temperature, mutant - wild type (higher = more stable) of "Q35V" for me?
Solution: -2.5 °C

Exercise: Can you look up the measured change of melting temperature, mutant - wild type (higher = more stable) of "E244I" for me?
Solution: -1 °C

Exercise: Can you look up the measured change of melting temperature, mutant - wild type (higher = more stable) of "A83N" for me?
Solution: -1 °C

Exercise: Can you look up the measured change of melting temperature, mutant - wild type (higher = more stable) of "A81E" for me?
Solution: -3 °C

Exercise: Can you look up the measured change of melting temperature, mutant - wild type (higher = more stable) of "A189Y" for me?
Solution: 0.5 °C

Exercise: Can you look up the measured change of melting temperature, mutant - wild type (higher = more stable) of "R254L" for me?
Solution: -1.5 °C

Exercise: Can you look up the measured change of melting temperature, mutant - wild type (higher = more stable) of "A296R" for me?
Solution: -0.5 °C

Exercise: Can you look up the measured change of melting temperature, mutant - wild type (higher = more stable) of "D255A" for me?
Solution: 0.5 °C

Exercise: Can you look up the measured change of melting temperature, mutant - wild type (higher = more stable) of "V105I" for me?
Solution: -1 °C

Exercise: Can you look up the measured change of melting temperature, mutant - wild type (higher = more stable) of "Q172K" for me?
Solution: 10.5 °C

Exercise: Can you look up the measured change of melting temperature, mutant - wild type (higher = more stable) of "E139H" for me?
Solution: 10.5 °C

Exercise: Can you look up the measured change of melting temperature, mutant - wild type (higher = more stable) of "E139T" for me?
Solution: 9.5 °C

Exercise: Can you look up the measured change of melting temperature, mutant - wild type (higher = more stable) of "G229E" for me?
Solution: 0.5 °C

Exercise: Can you look up the measured change of melting temperature, mutant - wild type (higher = more stable) of "Q35L" for me?
Solution: -2.5 °C

Exercise: Can you look up the measured change of melting temperature, mutant - wild type (higher = more stable) of "A197P" for me?
Solution: 1.5 °C

Exercise: Can you look up the measured change of melting temperature, mutant - wild type (higher = more stable) of "D147H" for me?
Solution: 8.5 °C

Exercise: Can you look up the measured change of melting temperature, mutant - wild type (higher = more stable) of "D30H" for me?
Solution: 0 °C

Exercise: Can you look up the measured change of melting temperature, mutant - wild type (higher = more stable) of "A81N" for me?
Solution: 0 °C

Exercise: Can you look up the measured change of melting temperature, mutant - wild type (higher = more stable) of "A95H" for me?
Solution: -0.5 °C

Exercise: Can you look up the measured change of melting temperature, mutant - wild type (higher = more stable) of "E244V" for me?
Solution: -0.5 °C

Exercise: Can you look up the measured change of melting temperature, mutant - wild type (higher = more stable) of "G229N" for me?
Solution: 0.5 °C

Exercise: Can you look up the measured change of melting temperature, mutant - wild type (higher = more stable) of "E139K" for me?
Solution: 7.5 °C

Exercise: Can you look up the measured change of melting temperature, mutant - wild type (higher = more stable) of "A296H" for me?
Solution: -1 °C

Exercise: Can you look up the measured change of melting temperature, mutant - wild type (higher = more stable) of "L248F" for me?
Solution: 10.5 °C

Exercise: Can you look up the measured change of melting temperature, mutant - wild type (higher = more stable) of "A271V" for me?
Solution: 11 °C

Exercise: Can you look up the measured change of melting temperature, mutant - wild type (higher = more stable) of "Q35I" for me?
Solution: -0.5 °C

Exercise: Can you look up the measured change of melting temperature, mutant - wild type (higher = more stable) of "D166K" for me?
Solution: 2.5 °C

Exercise: Can you look up the measured change of melting temperature, mutant - wild type (higher = more stable) of "A81K" for me?
Solution: 1 °C

Exercise: Can you look up the measured change of melting temperature, mutant - wild type (higher = more stable) of "S41Q" for me?
Solution: -2 °C

Exercise: Can you look up the measured change of melting temperature, mutant - wild type (higher = more stable) of "E15T" for me?
Solution: 1 °C

Exercise: Can you look up the measured change of melting temperature, mutant - wild type (higher = more stable) of "A133V" for me?
Solution: 0 °C

Exercise: Can you look up the measured change of melting temperature, mutant - wild type (higher = more stable) of "R225L" for me?
Solution: 0.5 °C

Exercise: Can you look up the measured change of melting temperature, mutant - wild type (higher = more stable) of "D100T" for me?
Solution: 0 °C

Exercise: Can you look up the measured change of melting temperature, mutant - wild type (higher = more stable) of "S42A" for me?
Solution: -1.5 °C

Exercise: Can you look up the measured change of melting temperature, mutant - wild type (higher = more stable) of "D147Y" for me?
Solution: 14 °C

Exercise: Can you look up the measured change of melting temperature, mutant - wild type (higher = more stable) of "G229R" for me?
Solution: 0.5 °C

Exercise: Can you look up the measured change of melting temperature, mutant - wild type (higher = more stable) of "A83L" for me?
Solution: 0.5 °C

Exercise: Can you look up the measured change of melting temperature, mutant - wild type (higher = more stable) of "T249M" for me?
Solution: 9.5 °C

Exercise: Can you look up the measured change of melting temperature, mutant - wild type (higher = more stable) of "A247F" for me?
Solution: 16.5 °C

Exercise: Can you look up the measured change of melting temperature, mutant - wild type (higher = more stable) of "A129V" for me?
Solution: -1 °C

Exercise: Can you look up the measured change of melting temperature, mutant - wild type (higher = more stable) of "E123S" for me?
Solution: 0 °C

Exercise: Can you look up the measured change of melting temperature, mutant - wild type (higher = more stable) of "D87K" for me?
Solution: -1 °C

Exercise: Can you look up the measured change of melting temperature, mutant - wild type (higher = more stable) of "D147L" for me?
Solution: 14 °C

Exercise: Can you look up the measured change of melting temperature, mutant - wild type (higher = more stable) of "V220M" for me?
Solution: 10 °C

Exercise: Can you look up the measured change of melting temperature, mutant - wild type (higher = more stable) of "E233H" for me?
Solution: 0.5 °C

Exercise: Can you look up the measured change of melting temperature, mutant - wild type (higher = more stable) of "E139Q" for me?
Solution: 7.5 °C

Exercise: Can you look up the measured change of melting temperature, mutant - wild type (higher = more stable) of "A153K" for me?
Solution: 10 °C

Exercise: Can you look up the measured change of melting temperature, mutant - wild type (higher = more stable) of "V106L" for me?
Solution: -0.5 °C

Exercise: Can you look up the measured change of melting temperature, mutant - wild type (higher = more stable) of "D147M" for me?
Solution: 15 °C

Exercise: Can you look up the measured change of melting temperature, mutant - wild type (higher = more stable) of I48C G283C for me?
Solution: -2 °C

Exercise: Can you look up the measured change of melting temperature, mutant - wild type (higher = more stable) of "R86L" for me?
Solution: -2 °C

Exercise: Can you look up the measured change of melting temperature, mutant - wild type (higher = more stable) of "D226K" for me?
Solution: -0.5 °C

Exercise: Can you look up the measured change of melting temperature, mutant - wild type (higher = more stable) of "A189F" for me?
Solution: 0.5 °C

Exercise: Can you look up the measured change of melting temperature, mutant - wild type (higher = more stable) of S42C A60C for me?
Solution: -1.5 °C

Exercise: Can you look up the measured change of melting temperature, mutant - wild type (higher = more stable) of "R20L" for me?
Solution: -1 °C

Exercise: Can you look up the measured change of melting temperature, mutant - wild type (higher = more stable) of "D30E" for me?
Solution: 0 °C

Exercise: Can you look up the measured change of melting temperature, mutant - wild type (higher = more stable) of S75C E199C for me?
Solution: -2.5 °C

Exercise: Can you look up the measured change of melting temperature, mutant - wild type (higher = more stable) of S2C N47C for me?
Solution: -3 °C

Exercise: Can you look up the measured change of melting temperature, mutant - wild type (higher = more stable) of "D219Q" for me?
Solution: -1 °C

Exercise: Can you look up the measured change of melting temperature, mutant - wild type (higher = more stable) of "A218E" for me?
Solution: 0 °C

Exercise: Can you look up the measured change of melting temperature, mutant - wild type (higher = more stable) of "D30A" for me?
Solution: 0 °C

Exercise: Can you look up the measured change of melting temperature, mutant - wild type (higher = more stable) of "A271I" for me?
Solution: 9.5 °C

Exercise: Can you look up the measured change of melting temperature, mutant - wild type (higher = more stable) of "E192R" for me?
Solution: 2.5 °C

Exercise: Can you look up the measured change of melting temperature, mutant - wild type (higher = more stable) of "A5E" for me?
Solution: 0.5 °C

Exercise: Can you look up the measured change of melting temperature, mutant - wild type (higher = more stable) of "E233Q" for me?
Solution: 0.5 °C

Exercise: Can you look up the measured change of melting temperature, mutant - wild type (higher = more stable) of "D30V" for me?
Solution: -2 °C

Exercise: Can you look up the measured change of melting temperature, mutant - wild type (higher = more stable) of "D68N" for me?
Solution: -0.5 °C

Exercise: Can you look up the measured change of melting temperature, mutant - wild type (higher = more stable) of "A53L" for me?
Solution: 1 °C

Exercise: Can you look up the measured change of melting temperature, mutant - wild type (higher = more stable) of "D97K" for me?
Solution: -0.5 °C

Exercise: Can you look up the measured change of melting temperature, mutant - wild type (higher = more stable) of "G229Q" for me?
Solution: 3 °C

Exercise: Can you look up the measured change of melting temperature, mutant - wild type (higher = more stable) of "D68H" for me?
Solution: 1 °C

Exercise: Can you look up the measured change of melting temperature, mutant - wild type (higher = more stable) of "A5L" for me?
Solution: -1 °C

Exercise: Can you look up the measured change of melting temperature, mutant - wild type (higher = more stable) of "E233T" for me?
Solution: 0.5 °C

Exercise: Can you look up the measured change of melting temperature, mutant - wild type (higher = more stable) of "D68L" for me?
Solution: -1.5 °C

Exercise: Can you look up the measured change of melting temperature, mutant - wild type (higher = more stable) of "D87L" for me?
Solution: 0.5 °C

Exercise: Can you look up the measured change of melting temperature, mutant - wild type (higher = more stable) of "T264Q" for me?
Solution: -1 °C

Exercise: Can you look up the measured change of melting temperature, mutant - wild type (higher = more stable) of "D97N" for me?
Solution: -1 °C

Exercise: Can you look up the measured change of melting temperature, mutant - wild type (higher = more stable) of "D97R" for me?
Solution: 0 °C

Exercise: Can you look up the measured change of melting temperature, mutant - wild type (higher = more stable) of "E78H" for me?
Solution: 0 °C

Exercise: Can you look up the measured change of melting temperature, mutant - wild type (higher = more stable) of "D166N" for me?
Solution: 2 °C

Exercise: Can you look up the measured change of melting temperature, mutant - wild type (higher = more stable) of "T264L" for me?
Solution: -0.5 °C

Exercise: Can you look up the measured change of melting temperature, mutant - wild type (higher = more stable) of "Q275P" for me?
Solution: -3 °C

Exercise: Can you look up the measured change of melting temperature, mutant - wild type (higher = more stable) of "E26R" for me?
Solution: -1 °C

Exercise: Can you look up the measured change of melting temperature, mutant - wild type (higher = more stable) of "E26Q" for me?
Solution: 0 °C

Exercise: Can you look up the measured change of melting temperature, mutant - wild type (higher = more stable) of "S183D" for me?
Solution: -1 °C

Exercise: Can you look up the measured change of melting temperature, mutant - wild type (higher = more stable) of "G229A" for me?
Solution: 0.5 °C
